Catalogue of molecules with associated AC50
Molecular target: UniProt:P08913
Sequence (P08913 whole entry): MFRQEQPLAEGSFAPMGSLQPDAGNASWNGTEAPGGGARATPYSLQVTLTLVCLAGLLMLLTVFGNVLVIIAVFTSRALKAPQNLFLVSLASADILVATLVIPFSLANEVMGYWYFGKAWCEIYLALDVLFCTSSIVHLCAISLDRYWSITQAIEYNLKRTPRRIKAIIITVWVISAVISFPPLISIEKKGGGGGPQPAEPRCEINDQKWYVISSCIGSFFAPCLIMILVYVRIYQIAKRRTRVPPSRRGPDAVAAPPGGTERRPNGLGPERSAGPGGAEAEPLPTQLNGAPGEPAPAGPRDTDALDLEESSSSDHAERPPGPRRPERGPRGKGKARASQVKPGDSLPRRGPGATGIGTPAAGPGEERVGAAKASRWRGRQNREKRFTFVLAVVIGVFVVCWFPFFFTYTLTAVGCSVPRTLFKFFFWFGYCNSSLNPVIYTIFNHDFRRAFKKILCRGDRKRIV
endpoint: AC50

• CCOc1ccc2ccccc2c1C(=O)N[C@@H]1C(=O)N2[C@@H]1SC(C)(C)[C@@H]2C(=O)O = > 30 µM
• C[C@]12CC[C@@H]3c4ccc(O)cc4CC[C@H]3[C@@H]1CC[C@@H]2OC(=O)CCC1CCCC1 [ESTRADIOL CYPIONATE] = > 30 µM
• CCC(=O)O[C@@H](O[P@](=O)(CCCCc1ccccc1)CC(=O)N1C[C@H](C2CCCCC2)C[C@H]1C(=O)O)C(C)C = > 30 µM
• c1cc(CN2CCCNCCNCCCNCC2)ccc1CN1CCCNCCNCCCNCC1 = > 30 µM
• C#C[C@]1(O)CC[C@H]2[C@@H]3CCC4=C(CCC(=O)C4)[C@H]3CC[C@@]21C = > 30 µM

###

Each item that follows carries a reported AC50.
Target: UniProt:Q12809
Sequence (Q12809 whole entry): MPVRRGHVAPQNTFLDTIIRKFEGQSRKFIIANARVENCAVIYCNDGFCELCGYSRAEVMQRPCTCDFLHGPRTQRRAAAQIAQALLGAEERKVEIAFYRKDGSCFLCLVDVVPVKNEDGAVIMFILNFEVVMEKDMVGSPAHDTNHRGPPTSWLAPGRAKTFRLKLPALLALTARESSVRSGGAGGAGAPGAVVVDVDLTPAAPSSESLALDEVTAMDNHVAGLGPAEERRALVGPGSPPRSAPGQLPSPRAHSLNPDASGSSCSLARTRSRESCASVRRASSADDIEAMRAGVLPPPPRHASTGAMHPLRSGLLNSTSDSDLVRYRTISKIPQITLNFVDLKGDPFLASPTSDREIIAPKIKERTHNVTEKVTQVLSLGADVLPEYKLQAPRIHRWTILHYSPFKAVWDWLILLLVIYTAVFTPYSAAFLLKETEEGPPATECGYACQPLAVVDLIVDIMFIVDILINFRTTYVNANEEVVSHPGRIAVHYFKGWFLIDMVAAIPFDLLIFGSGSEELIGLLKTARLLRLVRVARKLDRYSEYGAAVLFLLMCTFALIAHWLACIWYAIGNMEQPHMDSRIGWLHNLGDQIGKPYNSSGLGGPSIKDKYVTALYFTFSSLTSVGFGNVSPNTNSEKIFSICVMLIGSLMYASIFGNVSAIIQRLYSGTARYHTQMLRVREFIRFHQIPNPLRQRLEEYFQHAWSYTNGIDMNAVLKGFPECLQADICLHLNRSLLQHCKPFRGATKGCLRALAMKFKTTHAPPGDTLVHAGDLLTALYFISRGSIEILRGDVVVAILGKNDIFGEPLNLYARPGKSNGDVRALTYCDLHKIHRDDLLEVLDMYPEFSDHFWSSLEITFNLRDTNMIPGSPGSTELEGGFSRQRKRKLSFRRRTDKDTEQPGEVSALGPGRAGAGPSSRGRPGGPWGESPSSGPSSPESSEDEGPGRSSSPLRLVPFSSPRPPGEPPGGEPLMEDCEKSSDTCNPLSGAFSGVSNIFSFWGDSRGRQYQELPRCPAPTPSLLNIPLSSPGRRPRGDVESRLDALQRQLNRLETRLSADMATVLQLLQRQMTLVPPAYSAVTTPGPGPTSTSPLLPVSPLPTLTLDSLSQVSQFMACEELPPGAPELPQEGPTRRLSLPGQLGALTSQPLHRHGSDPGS
Type: functional
Conditions: read-out: AC50; further: assay procedure not described here
endpoint: AC50

* CN(CC(=O)O)C(=N)N [CREATINE] | > 30 µM
* COc1cccc2c1C(=O)c1c(O)c3c(c(O)c1C2=O)C[C@@](O)(C(C)=O)C[C@@H]3O[C@H]1C[C@H](N)[C@H](O)[C@H](C)O1 [DAUNORUBICIN] | > 30 µM
* N=C(N)c1ccc2cc(OC(=O)c3ccc(N=C(N)N)cc3)ccc2c1 [NAFAMOSTAT] | 3.3 µM
* CCC[C@@H]1C[C@@H](C(=O)N[C@@H]([C@H]2O[C@H](SC)[C@H](OP(=O)(O)O)[C@@H](O)[C@H]2O)[C@H](C)Cl)N(C)C1 [CLINDAMYCIN PHOSPHATE] | > 30 µM
* Cc1ccc(=O)n(-c2ccccc2)c1 [PIRFENIDONE] | > 30 µM
* COc1c(O[C@@H]2O[C@H](CO)[C@@H](O)[C@H](O)[C@H]2O)cc2c(c1OC)-c1ccc(SC)c(=O)cc1[C@@H](NC(C)=O)CC2 [THIOCOLCHICOSIDE] | > 30 µM
* COc1cc2nccc(Oc3ccc(NC(=O)Nc4cc(C)on4)c(Cl)c3)c2cc1OC [TIVOZANIB] | > 1 µM
* O=C(O)CSCC(=O)NC1CCSC1=O (stereo not drawn) [ERDOSTEINE] | > 30 µM
* CCN(CC)CCOC(=O)c1ccc(N)cc1Cl [CHLOROPROCAINE] | 11 µM
* CC(=O)S[C@@H]1CC2=CC(=O)CC[C@]2(C)[C@H]2CC[C@@]3(C)[C@@H](CC[C@@]34CCC(=O)O4)[C@H]12 [SPIRONOLACTONE] | > 30 µM
* CC1(C)C(C=C(Cl)Cl)C1C(=O)OCc1cccc(Oc2ccccc2)c1 (stereo not drawn) [PERMETHRIN] | > 30 µM
* COc1ccc2c(c1)[C@]13CCCC[C@@H]1[C@H](C2)N(C)CC3 [DEXTROMETHORPHAN] | 21.1 µM
* c1ccc2c(CC3=NCCN3)cccc2c1 [NAPHAZOLINE] | > 30 µM
* CCn1cc(C(=O)O)c(=O)c2cc(F)c(N3CCNCC3)nc21 [ENOXACIN] | > 30 µM
* [H]/N=C(\N/C(=N/[H])NCCCCCCNC(=N)NC(=N)Nc1ccc(Cl)cc1)Nc1ccc(Cl)cc1 [CHLORHEXIDINE] | 16.3 µM
* COC(=O)N[C@@H](C)CNc1nccc(-c2cn(C(C)C)nc2-c2cc(Cl)cc(NS(C)(=O)=O)c2F)n1 [ENCORAFENIB] | > 30 µM
* Nc1ncnc(Nc2ccc(Cl)cc2)n1 [CHLORAZANIL] | > 30 µM
* Nc1ccc(C(=O)O)c(O)c1 [AMINOSALICYLIC ACID] | > 30 µM
* CC(CCc1ccccc1)NC(C)C(O)c1ccc(O)cc1 (stereo not drawn) [NYLIDRIN] | 6.3 µM
* CC(=O)OC(C)OC(=O)C(C)c1ccc(-c2ccccc2)c(F)c1 (stereo not drawn) | > 30 µM
* O=C1[C@H]2CCCC[C@H]2C(=O)N1CCCCN1CCN(c2nsc3ccccc23)CC1 [PEROSPIRONE] | 2.3 µM
* CC(NCCc1ccc(O)cc1)C(O)c1ccc(O)cc1 (stereo not drawn) [RITODRINE] | > 30 µM
* CC(C)[N+](C)(CCOC(=O)C1c2ccccc2Oc2ccccc21)C(C)C [PROPANTHELINE] | 2 µM
* O=[N+]([O-])O[C@H]1CO[C@H]2[C@@H]1OC[C@H]2O[N+](=O)[O-] [ISOSORBIDE DINITRATE] | > 30 µM
* NS(=O)(=O)c1cc(C2(O)NC(=O)c3ccccc32)ccc1Cl (stereo not drawn) [CHLORTHALIDONE] | > 30 µM
* CN(C)c1cc(NC(=O)CNC(C)(C)C)c(O)c2c1C[C@H]1C[C@H]3[C@H](N(C)C)C(O)=C(C(N)=O)C(=O)[C@@]3(O)C(O)=C1C2=O [TIGECYCLINE] | > 30 µM
* CC(=O)/N=c1/sc(S(N)(=O)=O)nn1C [METHAZOLAMIDE] | > 30 µM
* CNC(=O)c1cc(Oc2ccc(NC(=O)Nc3ccc(Cl)c(C(F)(F)F)c3)c(F)c2)ccn1 [REGORAFENIB] | > 10 µM

###

Listing of recorded AC50 by entry.
Molecular target: UniProt:P11229
Sequence (P11229 whole entry): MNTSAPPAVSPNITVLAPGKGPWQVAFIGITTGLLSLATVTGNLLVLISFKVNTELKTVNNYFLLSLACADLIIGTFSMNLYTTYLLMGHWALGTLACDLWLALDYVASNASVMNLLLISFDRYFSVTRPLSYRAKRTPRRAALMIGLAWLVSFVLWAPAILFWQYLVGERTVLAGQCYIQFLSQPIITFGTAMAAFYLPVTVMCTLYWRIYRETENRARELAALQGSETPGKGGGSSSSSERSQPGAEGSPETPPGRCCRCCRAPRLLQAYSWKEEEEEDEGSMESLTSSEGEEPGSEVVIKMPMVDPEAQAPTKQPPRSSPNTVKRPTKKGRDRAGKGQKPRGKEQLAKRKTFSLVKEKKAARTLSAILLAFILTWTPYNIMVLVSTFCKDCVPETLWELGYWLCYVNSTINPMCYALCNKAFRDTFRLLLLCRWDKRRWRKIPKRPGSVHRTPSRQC
Assay type: functional
endpoint: AC50

- CC1(C)O[C@@H]2[C@@H](CO[C@@]3(COS(N)(=O)=O)OC(C)(C)O[C@@H]23)O1 [TOPIRAMATE]: > 10 µM
- C=CC(N)CCC(=O)O (stereo not drawn): > 10 µM
- O=C(O)CSCC(=O)NC1CCSC1=O (stereo not drawn): > 30 µM

###

In what follows, each item is paired with its AC50 for Muscarinic acetylcholine receptor M3 (Homo sapiens, UniProt P20309).
endpoint: AC50

* Cc1ccc(NC(=O)C2(c3ccc4c(c3)OC(F)(F)O4)CC2)nc1-c1cccc(C(=O)O)c1 | > 30 µM
* COc1cc2c(Nc3ccc(Br)cc3F)ncnc2cc1OCC1CCN(C)CC1 | 24 µM
* CN1c2ccccc2C(NCCCCCCC(=O)O)c2ccc(Cl)cc2S1(=O)=O (stereo not drawn) | > 30 µM
* C#Cc1cccc(Nc2ncnc3cc(OCCOC)c(OCCOC)cc23)c1 | > 30 µM
* CCC(C)(Oc1ccc(C2(c3ccc(OC(C)(CC)C(=O)O)cc3)CCCCC2)cc1)C(=O)O (stereo not drawn) [CLINOFIBRATE] | > 30 µM
* N=C(N)c1ccc2cc(OC(=O)c3ccc(N=C(N)N)cc3)ccc2c1 | 15 µM
* O=C(CCCN1CCC2(CC1)C(=O)NCN2c1ccccc1)c1ccc(F)cc1 | > 30 µM
* CNCC[C@H](Oc1cccc2ccccc12)c1cccs1 | > 30 µM
* CCC(=O)OCC(=O)[C@@]1(OC(=O)CC)[C@@H](C)C[C@H]2[C@@H]3CCC4=CC(=O)C=C[C@]4(C)[C@@]3(F)[C@@H](O)C[C@@]21C [BETAMETHASONE DIPROPIONATE] | > 30 µM
* CC[N+]1(C)CCCC(OC(=O)C(O)(c2ccccc2)c2ccccc2)C1 (stereo not drawn) [PIPENZOLATE] | 0.019 µM
* Nc1nc(F)nc2c1ncn2[C@@H]1O[C@H](COP(=O)(O)O)[C@@H](O)[C@@H]1O [FLUDARABINE PHOSPHATE] | > 30 µM
* CCCCC1(CC)C(=O)NC(=O)NC1=O | > 30 µM
* CC(=O)Oc1ccccc1C(=O)Nc1ncc([N+](=O)[O-])s1 [NITAZOXANIDE] | 13 µM
* C[C@]12CC[C@H](O)CC1=CC[C@@H]1[C@@H]2CC[C@]2(C)C(c3cccnc3)=CC[C@@H]12 | > 30 µM
* CN(C)c1cc(NC(=O)CNC(C)(C)C)c(O)c2c1C[C@H]1C[C@H]3[C@H](N(C)C)C(O)=C(C(N)=O)C(=O)[C@@]3(O)C(O)=C1C2=O | > 30 µM
* CCCC[C@H](C)C[C@H](O)/C=C/[C@H]1[C@H](O)CC(=O)[C@@H]1CCCC/C=C/C(=O)O | > 30 µM
* CN(c1nccc(=O)[nH]1)C1CCN(c2nc3ccccc3n2Cc2ccc(F)cc2)CC1 | > 30 µM
* Clc1ccc2c(c1)C(c1ccccc1)=NCc1nncn1-2 | > 30 µM
* N#Cc1ccccc1-c1cc(-c2ccccn2)cn(-c2ccccc2)c1=O | > 30 µM
* O=C1CN2Cc3c(ccc(Cl)c3Cl)N=C2N1 [ANAGRELIDE] | > 10 µM
* N#C[C@@H]1CCCN1C(=O)CNC12CC3CC(CC(O)(C3)C1)C2 | > 30 µM
* CC(C)OC(=O)C(C(=O)OC(C)C)=C1SC=CS1 [MALOTILATE] | > 30 µM
* CC(NCCc1ccc(O)cc1)C(O)c1ccc(O)cc1 (stereo not drawn) | > 30 µM
* C=C(C)[C@@H]1CCC(C)=C[C@H]1c1c(O)cc(CCCCC)cc1O | > 30 µM
* O=C(O)c1cc(O)c2c3nc4ccccc4oc-3cc(=O)c2n1 | 2.2 µM
* CCCOC(C(=O)OC1CCN(C)CC1)(c1ccccc1)c1ccccc1 | 0.83 µM
* CN1CCN(c2c(F)cc3c(=O)c(C(=O)O)cn4c3c2SCC4)CC1 | > 30 µM
* N[C@H](Cc1cc(I)c(Oc2cc(I)c(O)c(I)c2)c(I)c1)C(=O)O | > 30 µM
* C=CC(N)CCC(=O)O (stereo not drawn) | > 30 µM
* CN1CCN(CCCN2c3ccccc3Sc3ccc(S(=O)(=O)N(C)C)cc32)CC1 | 18 µM
* CCCCCCOC(=O)CCC(=O)CN [HEXAMINOLEVULINATE] | > 30 µM
* CC(=O)Nc1c(I)c(C(=O)N[C@H]2C(O)O[C@H](CO)[C@@H](O)[C@@H]2O)c(I)c(N(C)C(C)=O)c1I (stereo partly drawn) [METRIZAMIDE] | > 30 µM
* Cc1cc(CC(=O)O)n(C)c1C(=O)c1ccc(Cl)cc1 [ZOMEPIRAC] | > 30 µM
